Test system: HSV-1
Assay: Antiviral activity, HSV-1 in Vero cells, plaque method
Type: cell-based
Details: Human alphaherpesvirus 1, 20 hours, 90% inhibition of plaque formation
observed-property: EC90 (µM)

Cc1c(NC(=O)OC(C)(C)C)ccc2nc(N[C@H](C(=O)N(C)CCc3cccnc3)C(C)C)oc(=O)c12 ... 5.3
Cc1c(NC(=O)OC(C)(C)C)ccc2nc(N[C@@H](Cc3ccccc3)C(=O)N(C)CCc3ccccn3)oc(=O)c12 ... 5.9
Cc1c(NC(=O)OC(C)(C)C)ccc2nc(N3Cc4ccccc4C[C@H]3C(=O)N(C)CCc3cccnc3)oc(=O)c12 ... 11.8

(P) Cc1c(NC(=O)OC(C)(C)C)ccc2nc(NC3(C(=O)N(C)CCc4ccncc4)CCCC3)oc(=O)c12
(Q) Cc1c(NC(=O)OC(C)(C)C)ccc2nc(N[C@@H](CC3CCCCC3)C(=O)NCCc3ccccn3)oc(=O)c12
Returns: the argument ( P or Q ) having the larger EC90. Lab log: write the label of the selected item as the result. Q
